The compounds listed here are annotated with their melting point.
The reply should contain only the number, in °C.

>  <query-smiles>
CC(C)c1cccc(S(=O)(=O)n2c(CCCC(=O)O)cc3cc(Cl)ccc32)c1

>  <property-name>
melting point

>  <unit-abbrev>
°C

>  <reported>
128

$$$$
>  <query-smiles>
COC(=O)[C@@H]1C[C@H](OC(=O)c2ccc([N+](=O)[O-])cc2)C[C@H]1C(=O)OCc1ccccc1

>  <property-name>
melting point

>  <unit-abbrev>
°C

>  <reported>
79.5

$$$$

The compound Cc1cc2cc(CN3CCCC3)cnc2cc1NC(=O)c1ccc(-c2ccsc2)cc1 showed melting point equal to 187

Just for reference, a melting point compilation (Tetko et al.; mined from patent text by program, amines drawn as free bases though some values may be those of a salt) is where these values come from.
